From: the supplement of paper PMC10126150

test system: ATP; experiment: switch fluorescence ratio, 500 uM ATP over buffer (Cy3 cluster intensity, sum of 5 cycles each) (fold (ratio)); higher = stronger signal-on switching upon ATP binding; sequences stand for … in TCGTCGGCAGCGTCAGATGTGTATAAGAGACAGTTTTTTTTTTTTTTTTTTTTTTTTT…TC; conditions: aptamer strand: ATP DNA aptamer (quencher-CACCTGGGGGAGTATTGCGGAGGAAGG + anchor), 100 nM annealed; ATP concentration: 500 uM;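 further: ATP exposure 15 min at 22 °C before imaging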
ENDPOINT LABEL: switch fluorescence ratio
When you answer, write just the number.

CGGGTGAGCA
0.996
GTGACAATTT
0.998
AGAAGCCCCT
0.992

For this sequence ( GGGGTTCGTT ), measured switch fluorescence ratio is 1.01

For this sequence ( TTATTAGGGG ), measured switch fluorescence ratio is 0.983

For this sequence ( TTTCACACGG ), measured switch fluorescence ratio is 1.04

For this sequence ( TTCATTCATT ), measured switch fluorescence ratio is 0.982

* * *

system: ATP; assay: switch fluorescence ratio, 500 uM ATP over buffer (Cy3 cluster intensity, sum of 5 cycles each) (fold (ratio)); higher = stronger signal-on switching upon ATP binding; sequences stand for … in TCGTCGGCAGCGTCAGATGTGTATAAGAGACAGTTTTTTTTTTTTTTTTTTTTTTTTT…TC; details: aptamer strand: ATP DNA aptamer (quencher-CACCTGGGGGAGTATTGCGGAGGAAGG + anchor), 100 nM annealed; ATP concentration: 500 uM;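 further: ATP exposure 15 min at 22 °C before imaging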
ENDPOINT LABEL: switch fluorescence ratio

Consider the following illustrative entries.
ACTTAAGAAA
1.16
AGTGTGTGGC
1.01
TTTAGGGTTA
1.01
ATGCGTATCC
1
CTGGGATTGG
1

Reading of switch fluorescence ratio for GTTTTATGAG with ATP: 0.959

* * *

tested on: ATP; assay: switch fluorescence ratio, 500 uM ATP over buffer (Cy3 cluster intensity, sum of 5 cycles each) (fold (ratio)); higher = stronger signal-on switching upon ATP binding; sequences stand for … in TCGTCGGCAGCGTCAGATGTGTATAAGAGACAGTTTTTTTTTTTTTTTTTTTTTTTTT…TC; details: aptamer strand: ATP DNA aptamer (quencher-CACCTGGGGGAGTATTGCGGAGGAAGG + anchor), 100 nM annealed; ATP concentration: 500 uM;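 further: ATP exposure 15 min at 22 °C before imaging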
// values below are reported switch fluorescence ratio
When you answer, write just the number.

Consider the following illustrative entries.
TTGTTCTCGC
1.02
GGAATAGTTT
1.03

For this sequence ( AGGCCGTGGC ), measured switch fluorescence ratio is 0.968

For this sequence ( TCTTTTAGGC ), measured switch fluorescence ratio is 1

For this sequence ( TTTTAACTGG ), measured switch fluorescence ratio is 0.988

For this sequence ( AGGCTGAGCG ), measured switch fluorescence ratio is 1.01

For this sequence ( TGGAAAGGGT ), measured switch fluorescence ratio is 1.06

* * *

test system: ATP; test: switch fluorescence ratio, 500 uM ATP over buffer (Cy3 cluster intensity, sum of 5 cycles each) (fold (ratio)); higher = stronger signal-on switching upon ATP binding; sequences stand for … in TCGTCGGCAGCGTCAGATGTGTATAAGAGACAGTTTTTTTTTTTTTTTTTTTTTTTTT…TC; conditions: aptamer strand: ATP DNA aptamer (quencher-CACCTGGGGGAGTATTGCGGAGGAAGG + anchor), 100 nM annealed; ATP concentration: 500 uM;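 further: ATP exposure 15 min at 22 °C before imaging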
// values below are reported switch fluorescence ratio
When you answer, write just the number.

Consider the following illustrative entries.
TGGCGCCCTT
1.01
TGCTGCTGAG
0.971
GAGAAAGCCC
1
ATGATATGCA
1.02
CTGTATATAG
1.02
AACCGTAGTC
1.15
CAGTCGGTGG
1
GCTCATAGGA
0.972

For this sequence ( CAGGAGGATC ), measured switch fluorescence ratio is 1.03

For this sequence ( AGTTGGTCTC ), measured switch fluorescence ratio is 1.13

For this sequence ( CAGTTGGATT ), measured switch fluorescence ratio is 1.01

* * *

test system: ATP; assay: switch fluorescence ratio, 500 uM ATP over buffer (Cy3 cluster intensity, sum of 5 cycles each) (fold (ratio)); higher = stronger signal-on switching upon ATP binding; sequences stand for … in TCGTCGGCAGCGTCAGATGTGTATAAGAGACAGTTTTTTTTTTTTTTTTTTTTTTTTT…TC; settings: aptamer strand: ATP DNA aptamer (quencher-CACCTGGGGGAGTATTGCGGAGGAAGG + anchor), 100 nM annealed; ATP concentration: 500 uM;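 further: ATP exposure 15 min at 22 °C before imaging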
Please mark 1 if the recorded switch fluorescence ratio is equal to or greater than 1, and -1 if it falls below.

ATTAGAGTGT
-1
TGGGACTTTG
1
TTAGGAATGT
1
TACGTTGGCA
1
ATTTGCCGGG
1

QUERY: Has TTGGCTCGCA a recorded switch fluorescence ratio greater than or equal to 1?
RESULT: 1

QUERY: Has GTGAAGAAGG a recorded switch fluorescence ratio greater than or equal to 1?
RESULT: 1

* * *

test system: ATP; assay: switch fluorescence ratio, 500 uM ATP over buffer (Cy3 cluster intensity, sum of 5 cycles each) (fold (ratio)); higher = stronger signal-on switching upon ATP binding; sequences stand for … in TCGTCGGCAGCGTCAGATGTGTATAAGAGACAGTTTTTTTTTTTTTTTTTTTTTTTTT…TC; settings: aptamer strand: ATP DNA aptamer (quencher-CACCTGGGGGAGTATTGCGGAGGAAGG + anchor), 100 nM annealed; ATP concentration: 500 uM;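 further: ATP exposure 15 min at 22 °C before imaging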
// values below are reported switch fluorescence ratio
When you answer, write just the number.

Consider the following illustrative entries.
TCATTCGTTT
1.01
CTAGAATAGG
0.985
AGGTACTGTA
1.01

For this sequence ( CCGGGAAAGC ), measured switch fluorescence ratio is 1.18

For this sequence ( TAAATGGAGG ), measured switch fluorescence ratio is 0.989

For this sequence ( GGGCTTCAGA ), measured switch fluorescence ratio is 0.987

For this sequence ( GTGGGGGTCT ), measured switch fluorescence ratio is 0.972

For this sequence ( ATTGTGACGA ), measured switch fluorescence ratio is 1.03

* * *

tested on: ATP; assay: switch fluorescence ratio, 500 uM ATP over buffer (Cy3 cluster intensity, sum of 5 cycles each) (fold (ratio)); higher = stronger signal-on switching upon ATP binding; sequences stand for … in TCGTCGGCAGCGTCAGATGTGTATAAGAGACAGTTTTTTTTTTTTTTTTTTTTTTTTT…TC; settings: aptamer strand: ATP DNA aptamer (quencher-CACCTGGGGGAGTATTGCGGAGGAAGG + anchor), 100 nM annealed; ATP concentration: 500 uM;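 further: ATP exposure 15 min at 22 °C before imaging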
// values below are reported switch fluorescence ratio
When you answer, write just the number.

Consider the following illustrative entries.
AAGGGAGGGG
0.987
TTCACCGGGA
0.993
TACTTTAGAC
1.05
GAGGGTCCGG
0.991
ATCGTTTTTA
1
AGGACTTGTC
0.951
TTTTGGCACG
0.988
AGCGCATGTG
0.996
GGGATAGGGA
1.01
GGCCTGCTCG
0.988

For this sequence ( TATAAAATCT ), measured switch fluorescence ratio is 1.02

For this sequence ( ATGTAGCATC ), measured switch fluorescence ratio is 1.56

For this sequence ( TCGAAGGCAT ), measured switch fluorescence ratio is 1.06

For this sequence ( TATTGTCAGA ), measured switch fluorescence ratio is 1.01

For this sequence ( AGGGAAGGAC ), measured switch fluorescence ratio is 1.03

* * *

system: ATP; experiment: switch fluorescence ratio, 500 uM ATP over buffer (Cy3 cluster intensity, sum of 5 cycles each) (fold (ratio)); higher = stronger signal-on switching upon ATP binding; sequences stand for … in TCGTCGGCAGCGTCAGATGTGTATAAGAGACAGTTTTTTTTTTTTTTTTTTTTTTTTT…TC; details: aptamer strand: ATP DNA aptamer (quencher-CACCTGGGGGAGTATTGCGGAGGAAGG + anchor), 100 nM annealed; ATP concentration: 500 uM;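 further: ATP exposure 15 min at 22 °C before imaging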
// values below are reported switch fluorescence ratio
When you answer, write just the number.

Consider the following illustrative entries.
AGGCGGCCTG
0.982
TTGTCTATGA
0.986
AGGAATGGTC
1.02

For this sequence ( ACACCATTAA ), measured switch fluorescence ratio is 1.02

For this sequence ( TAACGCTGTT ), measured switch fluorescence ratio is 1.01

For this sequence ( TATGATGGGA ), measured switch fluorescence ratio is 0.991

For this sequence ( GTGTAAATCT ), measured switch fluorescence ratio is 1.04

For this sequence ( ACTTTATGTG ), measured switch fluorescence ratio is 0.996

For this sequence ( TTACGTTTTT ), measured switch fluorescence ratio is 0.999

For this sequence ( CATATGCTGC ), measured switch fluorescence ratio is 1.06

* * *

test system: ATP; experiment: switch fluorescence ratio, 500 uM ATP over buffer (Cy3 cluster intensity, sum of 5 cycles each) (fold (ratio)); higher = stronger signal-on switching upon ATP binding; sequences stand for … in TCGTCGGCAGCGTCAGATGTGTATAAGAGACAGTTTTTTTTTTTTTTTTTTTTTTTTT…TC; conditions: aptamer strand: ATP DNA aptamer (quencher-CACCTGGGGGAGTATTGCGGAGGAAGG + anchor), 100 nM annealed; ATP concentration: 500 uM;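 further: ATP exposure 15 min at 22 °C before imaging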
// values below are reported switch fluorescence ratio
When you answer, write just the number.

Consider the following illustrative entries.
CGATTAGGGG
1
AAATTCGCGT
1.01

For this sequence ( CTTACTATTG ), measured switch fluorescence ratio is 1.03

For this sequence ( CCTTGGGGGA ), measured switch fluorescence ratio is 1.14

For this sequence ( TTTTTAGCGA ), measured switch fluorescence ratio is 1.09

For this sequence ( TTAAGTCAAG ), measured switch fluorescence ratio is 0.987

For this sequence ( CGGATGTAGC ), measured switch fluorescence ratio is 1.02

For this sequence ( CGAGGGAATG ), measured switch fluorescence ratio is 1.1

For this sequence ( GGAAAAAATA ), measured switch fluorescence ratio is 1

For this sequence ( TTGTTTTCTG ), measured switch fluorescence ratio is 1.02

For this sequence ( ACACGGTGAT ), measured switch fluorescence ratio is 1.06

For this sequence ( AAAAAATGCT ), measured switch fluorescence ratio is 1.01

For this sequence ( GTCGGTTGGG ), measured switch fluorescence ratio is 0.99

For this sequence ( CGGAGTGCTT ), measured switch fluorescence ratio is 1.03

For this sequence ( GGGTTATCAG ), measured switch fluorescence ratio is 0.981

For this sequence ( GCAAGGGCTA ), measured switch fluorescence ratio is 1.04

For this sequence ( ACAGGTAGCT ), measured switch fluorescence ratio is 1.06

For this sequence ( TTAATTACCA ), measured switch fluorescence ratio is 0.984

For this sequence ( TGAGGGTGCT ), measured switch fluorescence ratio is 1.04
